Recorded values, source ChEMBL document CHEMBL3259701.

- target_system: Penicillin-binding protein 1A (Pseudomonas aeruginosa PAO1, UniProt Q07806)
- Sequence (Q07806 whole entry, the tested form may be a part): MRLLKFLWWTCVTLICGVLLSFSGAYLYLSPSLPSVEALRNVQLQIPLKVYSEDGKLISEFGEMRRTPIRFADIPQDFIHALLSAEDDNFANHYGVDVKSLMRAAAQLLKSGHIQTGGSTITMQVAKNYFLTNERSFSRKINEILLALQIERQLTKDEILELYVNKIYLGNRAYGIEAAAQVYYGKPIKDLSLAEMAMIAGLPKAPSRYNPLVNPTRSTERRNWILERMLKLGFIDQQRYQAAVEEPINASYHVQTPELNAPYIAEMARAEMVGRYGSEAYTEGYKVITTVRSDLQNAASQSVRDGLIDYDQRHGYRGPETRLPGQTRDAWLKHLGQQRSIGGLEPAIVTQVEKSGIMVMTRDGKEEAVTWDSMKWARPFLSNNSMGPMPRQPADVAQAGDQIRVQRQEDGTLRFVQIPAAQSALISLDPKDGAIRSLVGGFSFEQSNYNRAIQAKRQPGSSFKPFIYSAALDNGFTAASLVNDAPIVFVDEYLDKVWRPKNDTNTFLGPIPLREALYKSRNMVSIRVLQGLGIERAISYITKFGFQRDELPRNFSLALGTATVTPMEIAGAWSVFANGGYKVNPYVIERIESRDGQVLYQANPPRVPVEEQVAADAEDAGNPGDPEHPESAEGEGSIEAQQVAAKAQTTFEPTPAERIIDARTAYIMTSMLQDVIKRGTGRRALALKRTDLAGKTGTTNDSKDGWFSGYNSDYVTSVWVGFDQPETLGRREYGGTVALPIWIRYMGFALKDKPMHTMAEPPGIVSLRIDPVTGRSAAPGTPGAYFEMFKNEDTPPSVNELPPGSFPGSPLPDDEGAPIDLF
- assay_text: Displacement of fluorescent Bocillin FL from N-terminal His tagged Pseudomonas aeruginosa PAO1 PBP1a (residues 36 to 822) expressed in Escherichia coli BL21 (Gold cells)
Exam item: assign Condition met to entries whose IC50 is below 50 nM and Condition not met to entries at or above 50 nM. Note that a value of exactly 50 nM receives Condition not met.

is_below(IC50, 50 nM) for C[C@H]1[C@H](NC(=O)/C(=N\OC(C)(C)C(=O)O)c2csc(N)n2)C(=O)N1S(=O)(=O)O [AZTREONAM] ?
Condition not met

is_below(IC50, 50 nM) for CC(C)(O/N=C(\C(=O)N[C@H]1CON(C2(C(=O)O)C[C@@H](NC(=O)OCc3ccccc3)C(=O)O2)C1=O)c1csc(N)n1)C(=O)O (stereo partly drawn) ?
Condition not met

is_below(IC50, 50 nM) for CC(C)(O/N=C(\C(=O)N[C@H]1CON(C2(C(=O)O)CCC(=O)O2)C1=O)c1csc(N)n1)C(=O)O (stereo partly drawn) ?
Condition met

Continuing:
is_below(IC50, 50 nM) for CC(C)(O/N=C(\C(=O)N[C@H]1CON(C2(C(=O)O)C[C@H](N3C(=O)c4cc(O)c(O)cc4C3=O)C(=O)O2)C1=O)c1csc(N)n1)C(=O)O (stereo partly drawn) ?
Condition met

is_below(IC50, 50 nM) for CC(C)(O/N=C(\C(=O)N[C@H]1CON(C2(C(=O)O)C[C@H](NC(=O)c3cc(=O)c(O)cn3O)C(=O)O2)C1=O)c1csc(N)n1)C(=O)O (stereo partly drawn) ?
Condition met

is_below(IC50, 50 nM) for CC(C)(O/N=C(\C(=O)N[C@H]1CON(C2(C(=O)O)C[C@H](NC(=O)OCc3ccccc3)C(=O)O2)C1=O)c1csc(N)n1)C(=O)O (stereo partly drawn) ?
Condition not met

is_below(IC50, 50 nM) for CC(C)(O/N=C(\C(=O)N[C@H]1CON(C2(C(=O)O)C[C@@H](NC(=O)c3cc(=O)c(O)cn3O)C(=O)O2)C1=O)c1csc(N)n1)C(=O)O (stereo partly drawn) ?
Condition met

is_below(IC50, 50 nM) for Nc1nc(/C(=N/OCc2cc(=O)c(O)cn2O)C(=O)N[C@H]2CON(C3(C(=O)O)CCC(=O)O3)C2=O)cs1 (stereo partly drawn) ?
Condition met
